Molecular target: Neuronal acetylcholine receptor; alpha2/beta2 (Rattus norvegicus, UniProt P12389+P12390)
Sequence (P12389 whole entry): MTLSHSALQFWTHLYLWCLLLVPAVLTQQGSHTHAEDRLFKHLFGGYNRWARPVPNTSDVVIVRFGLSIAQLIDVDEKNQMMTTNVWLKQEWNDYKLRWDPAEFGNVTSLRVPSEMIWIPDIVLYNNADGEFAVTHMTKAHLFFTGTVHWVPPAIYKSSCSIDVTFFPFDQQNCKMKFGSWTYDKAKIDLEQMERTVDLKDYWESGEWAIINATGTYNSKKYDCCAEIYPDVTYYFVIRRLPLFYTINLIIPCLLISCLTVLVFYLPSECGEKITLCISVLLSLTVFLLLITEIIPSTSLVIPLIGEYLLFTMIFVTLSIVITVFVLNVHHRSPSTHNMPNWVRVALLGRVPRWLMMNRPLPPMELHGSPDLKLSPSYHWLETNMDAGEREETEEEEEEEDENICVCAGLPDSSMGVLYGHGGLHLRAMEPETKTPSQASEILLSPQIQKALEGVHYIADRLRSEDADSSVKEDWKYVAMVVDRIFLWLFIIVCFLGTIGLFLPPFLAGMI
Sequence (P12390 whole entry): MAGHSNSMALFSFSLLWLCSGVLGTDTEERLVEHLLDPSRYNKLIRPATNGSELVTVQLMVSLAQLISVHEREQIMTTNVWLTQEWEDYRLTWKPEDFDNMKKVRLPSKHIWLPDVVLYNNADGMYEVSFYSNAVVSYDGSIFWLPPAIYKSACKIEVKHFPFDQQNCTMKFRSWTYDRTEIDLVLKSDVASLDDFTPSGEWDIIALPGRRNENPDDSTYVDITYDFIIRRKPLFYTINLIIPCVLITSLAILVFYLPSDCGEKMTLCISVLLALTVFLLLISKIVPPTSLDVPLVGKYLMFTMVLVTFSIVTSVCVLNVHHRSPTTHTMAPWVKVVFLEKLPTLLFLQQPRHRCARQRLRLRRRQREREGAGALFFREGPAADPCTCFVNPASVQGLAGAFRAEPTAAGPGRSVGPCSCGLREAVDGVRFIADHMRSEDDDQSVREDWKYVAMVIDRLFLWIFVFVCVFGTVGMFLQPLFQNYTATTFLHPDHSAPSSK
Test: Displacement of [3H]epibatidine from rat alpha2beta2-nAChRs after 4 hrs by scintillation counting
For each of the molecules below, state its Ki.

Use these answered entries as a reference point.
[
  {
    "query-smiles": "FC(F)C[C@H]1C[C@@H]1c1cncc(OC[C@@H]2CCN2)c1",
    "readout-name": "Ki",
    "result": "0.3 nM"
  },
  {
    "query-smiles": "CC[C@H]1C[C@@H]1c1cncc(OC[C@@H]2CCN2)c1",
    "readout-name": "Ki",
    "result": "0.4 nM"
  }
]

Now for a further molecule.
Ki reading for `FCC[C@H]1C[C@@H]1c1cncc(OC[C@@H]2CCN2)c1` : 0.4 nM
